target: Luciferin 4-monooxygenase (Photinus pyralis); experiment: qHTS assay to identify small molecule inhibitors of firefly luciferase (AID 1224835); further: nearly all actives have a fitted effect of over 25% in size; further: potency means the concentration at half of the fitted maximal effect; conditions: purified P. pyralis luciferase, luminescence inhibition; series mostly up to 115 µM
Results filed as inconclusive are left out. Calls of active or inactive are those of the source. The call rests on the fitted dose curve; in most records, active means well fitted inhibition curve with a large enough effect in the repeat runs; inconclusive means weak or mixed curves; inactive means flat fitted curve, though single readings scatter.
READOUT KIND: Potency

These recorded examples may help you get a feel for the data.
### Prompt For the compound "Cc1ncc(CO)c(CN)c1O" , what Potency is on record?
### Response inactive

### Prompt For the compound "CCCCCCOc1ccc(N)cc1" , what Potency is on record?
### Response 31.7 µM (active)

### Prompt For the compound "FC(F)(F)C(Cl)(Cl)Cl" , what Potency is on record?
### Response inactive

### Prompt For the compound "OCC(CBr)(CBr)CBr" , what Potency is on record?
### Response 70.7 µM (active)

### Prompt For the compound COC(C)CCO (stereo not drawn) , what Potency is on record?
### Response inactive

Working through the 8 compounds below one at a time, give Potency for each.
1. COC(=O)N[C@H](C(=O)N[C@@H](Cc1ccccc1)[C@@H](O)CN(Cc1ccc(-c2ccccn2)cc1)NC(=O)[C@@H](NC(=O)OC)C(C)(C)C)C(C)(C)C
2. Cn1cnc2c(F)c(Nc3ccc(Br)cc3Cl)c(C(=O)NOCCO)cc21
3. CCOc1ccc(NS(=O)(=O)c2ccc(N)cc2)nn1
4. COC(=O)c1ccc(OC)cc1
5. O=S(=O)(O)C(F)(F)F
6. CNCCC(Oc1ccccc1OC)c1ccccc1 (stereo not drawn)
7. CCCCCCn1c(=O)c2c(ncn2C)n(C)c1=O
8. CCOc1ccc2nc(N)sc2c1

### Response
1. inactive
2. inactive
3. inactive
4. inactive
5. inactive
6. inactive
7. inactive
8. 19.9 µM (active)

* * *

assay: qHTS assay to identify small molecule antagonists of the vitamin D receptor (VDR) signaling pathway - cell viability counter screen (AID 743225); settings: VDR-bla HEK293T viability, CellTiter-Glo luminescence, 16 h; series mostly up to 61 µM; further: on the % scale 0 is the no-effect control and ±100 the full control effect; nearly all actives have a fitted effect of over 50% in size
Inconclusive results are not listed. Active and inactive are the calls of the source. Calls follow the shape of the dose curve; as a rule, active = well fitted cell-killing curve with a large enough effect in the repeat runs; inconclusive = weak or mixed curves, or effect the other way; inactive = no such curve, though single readings can be large or run the other way.
READOUT KIND: viability change, negative = cytotoxic

### Prompt For the compound "CC(C)C1=CC2=CC[C@@H]3[C@](C)(CCC[C@@]3(C)C(=O)O)[C@H]2CC1" , what viability change, negative = cytotoxic is on record?
### Response inactive

### Prompt For the compound "CCOC(=O)[C@H](CCc1ccccc1)N[C@@H](C)C(=O)N1Cc2cc(OC)c(OC)cc2C[C@H]1C(=O)O" , what viability change, negative = cytotoxic is on record?
### Response inactive

### Prompt For the compound "CC(C)CCCCCCc1ccc(OCCOCCO)cc1" , what viability change, negative = cytotoxic is on record?
### Response inactive

### Prompt For the compound CC1(C)S[C@@H]2[C@H](NC(=O)C(C(=O)O)c3ccccc3)C(=O)N2[C@H]1C(=O)O (some centres undefined) , what viability change, negative = cytotoxic is on record?
### Response inactive

### Prompt For the compound "N#CSCC(=O)O" , what viability change, negative = cytotoxic is on record?
### Response inactive

Working through the 3 compounds below one at a time, give viability change, negative = cytotoxic for each.
1. OCc1c2ccccc2cc2ccccc12
2. C=CCCC=C
3. CC(=O)N[C@@H](CC(C)C)C(=O)O

### Response
1: inactive; 2: inactive; 3: inactive

Working through the 8 compounds below one at a time, give viability change, negative = cytotoxic for each.
1. CCOC(=O)c1ccccc1O
2. Cc1cc2c(s1)Nc1ccccc1N=C2N1CCN(C)CC1
3. O=C(O)c1cccc(Cl)c1Cl
4. CC(C)S
5. CCCCCCCCCC/C=C/C#N
6. O=C1CCCc2ccccc21
7. CCOc1ccc(NC(N)=O)cc1
8. COC(=O)C(C)O (centres undefined)

### Response
inactive
inactive
inactive
inactive
inactive
inactive
inactive
inactive

Working through the 6 compounds below one at a time, give viability change, negative = cytotoxic for each.
1. CN1CCC[C@@H]1Cc1c[nH]c2ccc(CCS(=O)(=O)c3ccccc3)cc12
2. COc1ccc(S(=O)(=O)Nc2nnc(CC(C)C)s2)cc1
3. O=c1[nH]c(=O)n([C@H]2C[C@H](O)[C@@H](CO)O2)cc1C(F)(F)F
4. COC(=O)c1ccc(OC)cc1
5. CN(CC1(C)CCCO1)S(=O)(=O)c1ccc(Cl)c(S(N)(=O)=O)c1 (centres undefined)
6. Cc1c(C(=O)NCCO)[n+](=O)c2ccccc2n1[O-]

### Response
1. inactive
2. inactive
3. inactive
4. inactive
5. inactive
6. inactive

* * *

assay: qHTS assay for small molecule agonists of the antioxidant response element (ARE) signaling pathway - cell viability counter screen (AID 743203); conditions: ARE-bla HepG2 viability, CellTiter-Glo luminescence, 16 h; series mostly up to 73.3 µM; further: on the % scale 0 is the no-effect control and ±100 the full control effect; nearly all actives have a fitted effect of over 55% in size
Records with an inconclusive call do not appear. Activity calls are given as the source filed them. Calls come from the whole dose curve.
Select the correct class. Options are active, inactive and nothing else.

### Prompt Identify the outcome logged in this assay for the compound shown: "CC(C)NC[C@@H](O)COc1cccc2ccccc12"
### Response inactive

* * *

assay: qHTS assay to identify small molecule antagonists of the progesterone receptor (PR) signaling pathway - cell viability counter screen (AID 1346798); conditions: PR-UAS-bla HEK293T viability, CellTiter-Glo luminescence, 16 h; series mostly up to 42.5 µM;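 further: HEK293T PR-UAS-bla cells stimulated with the agonist R5020; on the % scale 0 is the no-effect control and ±100 the full control effect; nearly all actives have a fitted effect of over 50% in size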
Records with an inconclusive call do not appear. Calls of active or inactive are those of the source. The call rests on the fitted dose curve; in most records, active means well fitted cell-killing curve with a large enough effect in the repeat runs; inconclusive means weak or mixed curves, or effect the other way; inactive means no such curve, though single readings can be large or run the other way.
Select the correct class. Options are true (1) for active, false (0) for inactive and nothing else.

These recorded examples may help you get a feel for the data.
### Prompt Identify the outcome logged in this assay for the molecule shown: CC(C)(C)C1CCCCC1=O (stereo unspecified)
### Response false (0)

### Prompt Identify the outcome logged in this assay for the molecule shown: "Cc1c[nH]c(=S)[nH]c1=O"
### Response false (0)

### Prompt Identify the outcome logged in this assay for the molecule shown: "NC(=O)NS(=O)(=O)c1ccc(Cl)cc1"
### Response false (0)

Now, please, on to the next molecule.
### Prompt Identify the outcome logged in this assay for the molecule shown: CCC1(C)NC(=O)NC1=O (stereo unspecified)
### Response false (0)

* * *

test: qHTS assay to identify small molecule agonists of the estrogen receptor beta (ER-beta) signaling pathway - cell viability counter screen (AID 1259380); conditions: ER-beta-bla HEK293T viability, CellTiter-Glo luminescence, 16 h; series mostly up to 92.4 µM; further: on the % scale 0 is the no-effect control and ±100 the full control effect; nearly all actives have a fitted effect of over 30% in size
Results filed as inconclusive are left out. The source made the active and inactive calls. Calls follow the shape of the dose curve; as a rule, active = well fitted cell-killing curve with a large enough effect in the repeat runs; inconclusive = weak or mixed curves, or effect the other way; inactive = flat fitted curve, though single readings scatter.
READOUT KIND: outcome

These recorded examples may help you get a feel for the data.
### Prompt For the compound "C1CCOC1" , what outcome is on record?
### Response inactive

### Prompt For the compound "Cc1ccc([N+](=O)[O-])cc1Cl" , what outcome is on record?
### Response inactive

### Prompt For the compound "CCCCNCCCC" , what outcome is on record?
### Response inactive

### Prompt For the compound "O=C1N(c2ccccc2)c2ccccc2C1(Cc1ccncc1)Cc1ccncc1" , what outcome is on record?
### Response inactive

### Prompt For the compound CCCN(CCC)C(=O)C(CCC(=O)O)NC(=O)c1ccccc1 (centres undefined) , what outcome is on record?
### Response inactive

Working through the 3 compounds below one at a time, give outcome for each.
1. Cc1c(-c2ccccc2)oc2c(C(=O)OCCN3CCCCC3)cccc2c1=O
2. CCCOCCC
3. O=C1CCCCC1C1CCCCC1 (centres undefined)

### Response
1: inactive; 2: inactive; 3: inactive

* * *

experiment: qHTS assay to test for compound auto fluorescence at 460 nm (blue) in HepG2 cell free culture (AID 720685); settings: Cell-free culture medium, blue autofluorescence 405/460 nm; series mostly up to 91.3 µM; further: on the % scale 0 is the no-effect control and ±100 the full control effect
Active and inactive are the calls of the source. The call rests on the fitted dose curve; in most records, active means well fitted curve in the direction sought with a large enough effect in the repeat runs; inconclusive means weak or mixed curves; inactive means flat fitted curve, though single readings scatter.
READOUT KIND: fluorescence, % of fluorescent control

### Prompt For the compound "CCCNC(C)(C)COC(=O)c1ccccc1" , what fluorescence, % of fluorescent control is on record?
### Response inactive

### Prompt For the compound CCOC(=O)COc1ccc2c(c1)CC(NCC(O)c1cccc(Cl)c1)CC2 (stereo not given) , what fluorescence, % of fluorescent control is on record?
### Response inactive

### Prompt For the compound "CC(C)CCCCCCc1ccc(OCCOCCO)cc1" , what fluorescence, % of fluorescent control is on record?
### Response inactive

### Prompt For the compound "CCOc1ccc(OCC)c(Cl)c1" , what fluorescence, % of fluorescent control is on record?
### Response inactive

### Prompt For the compound "CCOc1ccc2nc(N)sc2c1" , what fluorescence, % of fluorescent control is on record?
### Response inactive

### Prompt For the compound CC(C)=CCCC(C)CCOC=O (stereo not given) , what fluorescence, % of fluorescent control is on record?
### Response inactive

Working through the 4 compounds below one at a time, give fluorescence, % of fluorescent control for each.
1. C=CC(C)(O)CC/C=C(\C)CCC=C(C)C (stereo not given)
2. OCCN(CCO)c1ccccc1
3. CC1=C(O)C(=O)OC1C (stereo not given)
4. CCCNC(C)C(=O)Nc1c(C)csc1C(=O)OC (stereo not given)

### Response
1. inactive
2. inactive
3. inactive
4. -0.0067% [at 18.6 µM] (inactive)
